Measured fold less active against AdoMetDC compared to parent values are reported for all entries that follow.
- study-system: T. brucei AdoMetDC/prozyme (Trypanosoma brucei brucei, UniProt P50244)
- Sequence (P50244 86-370 limits assumed): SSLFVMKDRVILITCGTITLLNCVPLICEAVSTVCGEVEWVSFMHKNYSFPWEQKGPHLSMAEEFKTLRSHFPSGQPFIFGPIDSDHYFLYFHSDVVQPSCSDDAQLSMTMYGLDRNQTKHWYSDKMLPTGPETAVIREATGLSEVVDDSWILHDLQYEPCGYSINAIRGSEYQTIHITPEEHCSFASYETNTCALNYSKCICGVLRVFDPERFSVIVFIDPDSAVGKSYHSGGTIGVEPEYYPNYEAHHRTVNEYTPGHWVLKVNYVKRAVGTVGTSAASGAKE
- protocol-details: T. brucei AdoMetDC enzyme activity assay
- Format: biochemical
- condition-notes: compared to 1 (27 versus 11a); IC50 with PI

// below: answered compounds
Ask | Provide the documented fold less active against AdoMetDC compared to parent with T. brucei AdoMetDC/prozyme (Trypanosoma brucei brucei, UniProt P50244) as the system for CCOc1ncnc2c1ncn2[C@@H]1O[C@H](CN(C)C/C=C\CN)[C@@H](O)[C@H]1O [Compound 28d]
Reply | ~16 fold

Ask | Another compound to check: `CNc1ncnc2c1ncn2[C@@H]1O[C@H](CN(C)C/C=C\CN)[C@H]2OC(C)(C)O[C@H]21`
Reply | 3- to 4 fold

Ask | Next up: CN(C/C=C\CN)C[C@H]1O[C@@H](n2cnc3c(N)ncnc32)[C@@H]2OC(C)(C)O[C@@H]21 [Compound 11a]
Reply | ~ 50 fold

Ask | // same read-out, input: CN(C/C=C\CN)C[C@H]1O[C@@H](n2cnc3c(N(C)C)ncnc32)[C@H](O)[C@@H]1O [Compound 28b]
Reply | ~ 20 fold

Ask | Moving on to the next compound: CNc1ncnc2c1ncn2[C@@H]1O[C@H](CN(C)C/C=C\CN)[C@@H](O)[C@H]1O [Compound 28a]
Reply | 3- to 4 fold

// moving on: another record for fold less active against AdoMetDC compared to parent
Ask | Please state recorded fold less active against AdoMetDC compared to parent (tested on T. brucei AdoMetDC/prozyme (Trypanosoma brucei brucei, UniProt P50244)) of CC(C)Nc1ncnc2c1ncn2[C@@H]1O[C@H](CN(C)C/C=C\CN)[C@@H](O)[C@H]1O [Compound 28c]
Reply | 3- to 4 fold
